Measured Tmax, listed per entry.
experiment: Pharmacokinetics in rat plasma after oral administration of PA, PMRP or ATR (HPLC-MS and GC-MS); details: rat plasma; oral PA extract 4.32 g/kg once; mean ± S.D., n = 6
Outcome Measure: Tmax

1) Cc1cc(O)c2c(c1)C(=O)c1cc(O)cc(O)c1C2=O [emodin]: 28.3 ± 44.9 min
2) C/C=C/c1cc(OC)c(OC)cc1OC [α-asarone]: 52.5 ± 41.9 min
3) C/C=C/c1ccc(OC)c(OC)c1 [cis-methyl isoeugenol]: 94.98 ± 189.8 min
4) C/C=C\c1cc(OC)c(OC)cc1OC [β-asarone]: 20.8 ± 21.1 min
5) COc1cc(OC)c(OC)cc1C=O [asarylaldehyde]: 25.9 ± 26.5 min
6) O=C(O)c1cc(O)c(O)c(O)c1 [gallic acid]: 26.6 ± 45.8 min
